Data origin, for the record: patent US20240398773A1

# assay: Study CL-006 plasma PK
# Assay type: in vivo, human
# details: human, plasma, 300 mg, Day 7, 300 mg; 24 weeks; read-out: AUC0-8
endpoint-label: AUC(0-t) (ng·h/mL)
# unit: ng·h/mL | format: bare number

Quick one: give measured AUC(0-t) for O[C@@](Cn1cnnn1)(c1ccc(F)cc1F)C(F)(F)c1ccc(-c2ccc(OCC(F)(F)F)cc2)cn1
21600

---

# assay: Study CL-003 in subjects with tinea pedis, plasma PK
# Type: in vivo, human
# details: human, plasma, Low Dose 200 mg/50 mg, Day 14
endpoint-label: Cmax (ng/mL)
Write down the numeric answer in ng/mL and omit the unit.

Report Cmax for O[C@@](Cn1cnnn1)(c1ccc(F)cc1F)C(F)(F)c1ccc(-c2ccc(OCC(F)(F)F)cc2)cn1 [Oteseconazole, oteseconazole]
1090

---

# assay: Study CL-007 DDI and PKE cohorts, plasma PK
# Assay type: in vivo
# details: human, PKE Cohort, Day 1, geometric mean
endpoint-label: Cmax (ng/mL)
Answer in ng/mL, number only, no unit symbol.

State its Cmax for this compound: O[C@@](Cn1cnnn1)(c1ccc(F)cc1F)C(F)(F)c1ccc(-c2ccc(OCC(F)(F)F)cc2)cn1
1900

---

# assay: Study CL-003 in subjects with tinea pedis, plasma PK
# Type: in vivo, human
# details: human, plasma; blood sampling for 168 days (4032 hours); read-out: terminal phase half-life, range of median values
# Protocol: Oteseconazole was slowly absorbed, with median time to peak plasma concentration values that ranged from 5.0 to 6.0 hours after dosing on Days 1 and 14 for all treatments. […] The Cmax values on Day 1 were similar between the mid- and high-dose treatments, since the first dose on that day was 600 mg for each treatment.
endpoint-label: half-life

Give a short answer stating reported half-life for O[C@@](Cn1cnnn1)(c1ccc(F)cc1F)C(F)(F)c1ccc(-c2ccc(OCC(F)(F)F)cc2)cn1 [Oteseconazole, oteseconazole] .
86.7 to 172 days

---

# assay: Study CL-003 in subjects with tinea pedis, plasma PK
# Assay type: in vivo, human
# details: human, plasma, Low Dose 200 mg/50 mg, Day 1
endpoint-label: Tmax (h)
I only need the number, in h, no unit after it.

Determine its reported Tmax: O[C@@](Cn1cnnn1)(c1ccc(F)cc1F)C(F)(F)c1ccc(-c2ccc(OCC(F)(F)F)cc2)cn1 [Oteseconazole, oteseconazole]
6

---

# assay: Study CL-005 in subjects with onychomycosis, plasma PK
# Format: in vivo
# details: human, after 24 weeks, 300 mg 24-week treatment group, read-out: plasma exposure
endpoint-label: concentration at 24 weeks (ng/mL)
Use ng/mL as the unit, but write only the number.

Respond only with concentration at 24 weeks recorded for O[C@@](Cn1cnnn1)(c1ccc(F)cc1F)C(F)(F)c1ccc(-c2ccc(OCC(F)(F)F)cc2)cn1 [Oteseconazole, oteseconazole]
9230

---

# assay: Study CL-001 single-dose escalation in healthy subjects, plasma PK
# Type: in vivo, human
# details: both sexes, human, plasma, po, 320 mg, Cohort 7, single oral 320 mg, Fasted; mean; read-out: Vz/F
endpoint-label: Vd/F (L)
Just the number please, in L, no unit attached.

Read the entry O[C@@](Cn1cnnn1)(c1ccc(F)cc1F)C(F)(F)c1ccc(-c2ccc(OCC(F)(F)F)cc2)cn1 [Oteseconazole, oteseconazole] and write its reported Vd/F.
1650

---

# assay: Study CL-005 in subjects with onychomycosis, plasma PK
# Format: in vivo
# details: human, after 12 weeks, 600 mg 12-week treatment group, read-out: plasma exposure
endpoint-label: concentration at 12 weeks (ng/mL)
Give just the number in ng/mL; leave the unit off.

Note concentration at 12 weeks for the molecule shown: O[C@@](Cn1cnnn1)(c1ccc(F)cc1F)C(F)(F)c1ccc(-c2ccc(OCC(F)(F)F)cc2)cn1
12300

---

# assay: Study CL-006 plasma PK
# Assay type: in vivo, human
# details: human, plasma, 300 mg, Day 7, 300 mg; 12 weeks; read-out: AUC0-8
endpoint-label: AUC(0-t) (ng·h/mL)
Expressed in ng·h/mL, but write only the number.

Return the recorded AUC(0-t) value; entry: O[C@@](Cn1cnnn1)(c1ccc(F)cc1F)C(F)(F)c1ccc(-c2ccc(OCC(F)(F)F)cc2)cn1
20500

---

# assay: Study CL-004 plasma PK
# Assay type: in vivo, human
# details: human, plasma, 600 mg, 600 mg BID dose group; read-out: predicted minimum concentration (Cmin) at 24 hours after the final Day 3 dose
endpoint-label: concentration at 24 h (ng/mL)
Numbers only; they are read as ng/mL.

Consider the compound O[C@@](Cn1cnnn1)(c1ccc(F)cc1F)C(F)(F)c1ccc(-c2ccc(OCC(F)(F)F)cc2)cn1 and give its recorded concentration at 24 h.
2830

---

# assay: Study CL-017 plasma PK
# Format: in vivo, human
# details: human, plasma, oral; 3 × 150 mg (450 mg), Day 2; Geometric Mean
endpoint-label: Cmax (ng/mL)
The response must be a number in ng/mL with no trailing unit.

Provide Cmax value for the following compound: O[C@@](Cn1cnnn1)(c1ccc(F)cc1F)C(F)(F)c1ccc(-c2ccc(OCC(F)(F)F)cc2)cn1
2010

---

# assay: Study CL-001 single-dose escalation in healthy subjects, plasma PK
# Type: in vivo, human
# details: both sexes, human, plasma, po, 160 mg, Cohort 6, single oral 160 mg, fasted; mean
endpoint-label: Cmax (ng/mL)
Answer in ng/mL, number only, no unit symbol.

Name the recorded Cmax of the compound listed here: O[C@@](Cn1cnnn1)(c1ccc(F)cc1F)C(F)(F)c1ccc(-c2ccc(OCC(F)(F)F)cc2)cn1
180

---

# assay: Study CL-017 plasma PK
# Type: in vivo, human
# details: human, plasma, oral, 600 mg, Day 2, predose; read-out: mean (SD) plasma concentration
endpoint-label: concentration at 24 h (ng/mL)
Could you give me the number in ng/mL? Just the number is fine.

Recall and state the measured concentration at 24 h for O[C@@](Cn1cnnn1)(c1ccc(F)cc1F)C(F)(F)c1ccc(-c2ccc(OCC(F)(F)F)cc2)cn1 .
698

---

# assay: Study CL-003 in subjects with tinea pedis, plasma PK
# Type: in vivo, human
# details: human, plasma, Mid Dose 600 mg/150 mg, Day 1
endpoint-label: Cmax (ng/mL)
Field: numeric (ng/mL). Do not append units.

Note Cmax for the compound shown: O[C@@](Cn1cnnn1)(c1ccc(F)cc1F)C(F)(F)c1ccc(-c2ccc(OCC(F)(F)F)cc2)cn1
679

---

# assay: Study CL-006 plasma PK
# Assay type: in vivo, human
# details: human, plasma; 150 mg oteseconazole
endpoint-label: concentration at 48 week (ng/mL)
Give just the numeric value; ng/mL need not be written.

Using the record for O[C@@](Cn1cnnn1)(c1ccc(F)cc1F)C(F)(F)c1ccc(-c2ccc(OCC(F)(F)F)cc2)cn1 , state its measured concentration at 48 week.
2150

---

# assay: Study CL-003 in subjects with tinea pedis, plasma PK
# Format: in vivo, human
# details: human, plasma, High Dose 1200 mg/300 mg, Day 14
endpoint-label: Cmax (ng/mL)
# value in ng/mL; strip the unit string

Look up and report measured Cmax for this entry: O[C@@](Cn1cnnn1)(c1ccc(F)cc1F)C(F)(F)c1ccc(-c2ccc(OCC(F)(F)F)cc2)cn1 [Oteseconazole, oteseconazole]
2520

---

# assay: Study CL-004 plasma PK
# Assay type: in vivo, human
# details: human, plasma; 300 mg dose; read-out: median Tmax
endpoint-label: Tmax
Quick note: number first, unit second.

Return value of Tmax for input O[C@@](Cn1cnnn1)(c1ccc(F)cc1F)C(F)(F)c1ccc(-c2ccc(OCC(F)(F)F)cc2)cn1 [Oteseconazole, oteseconazole] , no commentary.
4 h

---

# assay: Study CL-007 DDI and PKE cohorts, plasma PK
# Assay type: in vivo
# details: human, PKE Cohort, Day 1, median
endpoint-label: Tmax (h)
Answer in h, number only, no unit symbol.

Fill in reported Tmax for this entry: O[C@@](Cn1cnnn1)(c1ccc(F)cc1F)C(F)(F)c1ccc(-c2ccc(OCC(F)(F)F)cc2)cn1
6

---

# assay: Study CL-012 plasma concentrations
# Format: in vivo
# details: human, 150 mg, Week 48, read-out: mean (SD) plasma concentration
# Procedure: Oteseconazole mean (SD) plasma concentration increased with dosing for 12 weeks, reaching a maximum concentration of 3605.8 (1518.08) μg/L at Week 12. At the end of dosing, there was a slow decrease in oteseconazole plasma concentration, reaching 1122.0 (656.14) μg/L by Week 48 (FIG. 5). Following the loading dose regimen of 150 mg oteseconazole QD for 7 days, the mean (SD) oteseconazole plasma concentration at Day 14 was 1785.5 (747.75) μg/L.
endpoint-label: concentration at 48 week

Tell us which concentration at 48 week value is on record for O[C@@](Cn1cnnn1)(c1ccc(F)cc1F)C(F)(F)c1ccc(-c2ccc(OCC(F)(F)F)cc2)cn1 [Oteseconazole, oteseconazole]
1120 ng/mL
